experimental_protocol: Blood exposure of UCB-9260 in the mouse models
Type: in vivo
condition_context: male, Balb/c, mouse, blood, oral, 30 mg/kg, 30 mg/kg p.o.; zymosan model; Fu 2.4%; read-out: Blood concentration 1h post dose (free)

compound	concentration at 1 h / nM
Cc1ccc(C)c(Cn2c(C(O)c3ccncc3)nc3ccc(-c4cnn(C)c4)cc32)c1 (stereo not shown)	70

----------
experimental_protocol: Blood exposure of UCB-9260 in the mouse models
Assay type: in vivo
condition_context: Balb/c, mouse, blood, oral, 10 mg/kg, 10 mg/kg p.o.; mouse TNF neutrophilia model; Fu 2.4%; read-out: Blood concentration 0.5h post dose (free)
readout: concentration at 0.5 h (nM)

compound	readout	display_unit	result_value
Cc1ccc(C)c(Cn2c(C(O)c3ccncc3)nc3ccc(-c4cnn(C)c4)cc32)c1 (stereo not shown)	concentration at 0.5 h	nM	32

----------
experimental_protocol: Blood exposure of UCB-9260 in the mouse models
Format: in vivo
condition_context: mouse, blood, 150 mg/kg, 150 mg/kg B.I.D.; CAIA model; read-out: Blood concentration (free), 6h post dose

compound	display_unit	concentration at 6 h
Cc1ccc(C)c(Cn2c(C(O)c3ccncc3)nc3ccc(-c4cnn(C)c4)cc32)c1 (stereo not shown) [UCB-9260]	nM	239

----------
experimental_protocol: Blood exposure of UCB-9260 in the mouse models
Format: in vivo
condition_context: Balb/c, mouse, blood, oral, 10 mg/kg; mouse TNF neutrophilia model; individual mice; read-out: Free exposure

compound	concentration at 0.5 h / nM
Cc1ccc(C)c(Cn2c(C(O)c3ccncc3)nc3ccc(-c4cnn(C)c4)cc32)c1 (stereo not shown)	35.9

----------
experimental_protocol: Blood exposure of UCB-9260 in the mouse models
Type: in vivo
condition_context: male, Balb/c, mouse, blood, oral, 300 mg/kg, 300 mg/kg p.o.; zymosan model; Fu 2.4%; read-out: Blood concentration 1h post dose (free)

molecule	concentration at 1 h (nM)
Cc1ccc(C)c(Cn2c(C(O)c3ccncc3)nc3ccc(-c4cnn(C)c4)cc32)c1 (stereo not shown) [UCB-9260]	677

----------
experimental_protocol: Blood exposure of UCB-9260 in the mouse models
Assay type: in vivo
condition_context: male, Balb/c, mouse, blood, oral, 30 mg/kg; zymosan model; individual mice; read-out: free exposure 1h post dose
readout: concentration at 1 h

compound	result_value
Cc1ccc(C)c(Cn2c(C(O)c3ccncc3)nc3ccc(-c4cnn(C)c4)cc32)c1 (stereo not shown) [UCB-9260]	46.8 nM

----------
experimental_protocol: Blood exposure of UCB-9260 in the mouse models
Type: in vivo
condition_context: Balb/c, mouse, blood, oral, 100 mg/kg, 100 mg/kg p.o.; mouse TNF neutrophilia model; Fu 2.4%; read-out: Blood concentration 0.5h post dose (free)

molecule	concentration at 0.5 h / nM
Cc1ccc(C)c(Cn2c(C(O)c3ccncc3)nc3ccc(-c4cnn(C)c4)cc32)c1 (stereo not shown) [UCB-9260]	1350

----------
experimental_protocol: Blood exposure of UCB-9260 in the mouse models
Format: in vivo
condition_context: Balb/c, mouse, blood, oral, 100 mg/kg, 100 mg/kg p.o.; human TNF neutrophilia model; mean n=3 ± s.e.m.; read-out: Blood concentration 0.5h post dose total

compound	concentration at 0.5 h
Cc1ccc(C)c(Cn2c(C(O)c3ccncc3)nc3ccc(-c4cnn(C)c4)cc32)c1 (stereo not shown) [UCB-9260]	29.8 µM

----------
experimental_protocol: Blood exposure of UCB-9260 in the mouse models
Format: in vivo
condition_context: Balb/c, mouse, blood, oral, 100 mg/kg, 100 mg/kg p.o.; human TNF neutrophilia model; Fu 2.4%; read-out: Blood concentration 0.5h post dose (free)
readout: concentration at 0.5 h (nM)

compound	readout	display_unit	result_value
Cc1ccc(C)c(Cn2c(C(O)c3ccncc3)nc3ccc(-c4cnn(C)c4)cc32)c1 (stereo not shown)	concentration at 0.5 h	nM	716

----------
experimental_protocol: Blood exposure of UCB-9260 in the mouse models
Type: in vivo
condition_context: Balb/c, mouse, blood, oral, 300 mg/kg, 300 mg/kg p.o.; human TNF neutrophilia model; Fu 2.4%; read-out: Blood concentration 0.5h post dose (free)
readout: concentration at 0.5 h (nM)

compound	result_value
Cc1ccc(C)c(Cn2c(C(O)c3ccncc3)nc3ccc(-c4cnn(C)c4)cc32)c1 (stereo not shown)	1190

----------
experimental_protocol: Blood exposure of UCB-9260 in the mouse models
Assay type: in vivo
condition_context: Balb/c, mouse, blood, oral, 300 mg/kg; human TNF neutrophilia model; individual mice; read-out: Free exposure
readout: concentration at 0.5 h (nM)

molecule	display_unit	result_value
Cc1ccc(C)c(Cn2c(C(O)c3ccncc3)nc3ccc(-c4cnn(C)c4)cc32)c1 (stereo not shown) [UCB-9260]	nM	1190

----------
experimental_protocol: Blood exposure of UCB-9260 in the mouse models
Format: in vivo
condition_context: Balb/c, mouse, blood, oral, 300 mg/kg; mouse TNF neutrophilia model; individual mice; 0.5h post dose; read-out: Total exposure

compound	concentration at 0.5 h (µM)
Cc1ccc(C)c(Cn2c(C(O)c3ccncc3)nc3ccc(-c4cnn(C)c4)cc32)c1 (stereo not shown)	63

----------
experimental_protocol: Blood exposure of UCB-9260 in the mouse models
Format: in vivo
condition_context: male, Balb/c, mouse, blood, oral, 10 mg/kg, 10 mg/kg p.o.; zymosan model; Fu 2.4%; read-out: Blood concentration 1h post dose (free)

compound	concentration at 1 h, nM
Cc1ccc(C)c(Cn2c(C(O)c3ccncc3)nc3ccc(-c4cnn(C)c4)cc32)c1 (stereo not shown)	2

Where these numbers come from: paper PMC6923382
